Target: PfENT1 (Plasmodium falciparum)
Test: cell-based
Conditions: EC50 5-FUrd growth rescue of fui1Δ::PfENT1-HA-CO, 125 µM 5-FUrd; mean ± SD, N ≥ 3
Please go through the items and note down their pEC50.
Answers are plain numbers, as −log10 of the molar value.

COc1ccccc1C(=O)Nc1cccc(-c2nc3ncccc3o2)c1 [Compound 7]
5.19
O=C(Nc1ccc(-c2nc3ncccc3o2)cc1)c1ccccc1Br [Compound 2]
5.22
O=C(Nc1ccc(Cl)c(-c2nc3ncccc3o2)c1)c1cccs1 [Compound 19]
5.27
Cn1cc(C(=O)C(=O)Nc2ccc(C(=O)N3CCCC3)cc2)c2ccccc21 [Compound 5]
5.19

Quickly give me recorded pEC50 for O=C(Nc1ccc2nc(NC(=O)c3ccco3)sc2c1)c1ccco1 [Compound 1]
6.10

---

Target: UniProtKB Q8IDM6
Test: [3H]adenosine uptake into ade2Δ + PfENT1-CO yeast
Assay type: cell-based
valueType: IC50 (nM)
One number for each entry, in nM.

Quickly give me recorded IC50 for Cc1ccccc1/C=C/c1nc2ccccc2c(=O)[nH]1
3.9

---

System: fui1Δ::PfENT1-HA-CO strain
Experiment: 5-FUrd growth inhibition of PfENT1-HA-CO expressing fui1Δ yeast
Format: cell-based
Conditions: Saccharomyces cerevisiae, read-out: 5-FUrd IC50, yeast cell growth, growth assessed by OD600
valueType: pIC50
Numbers only, as −log10 of the molar value.

Quickly give me recorded pIC50 for O=c1[nH]c(=O)n([C@@H]2O[C@H](CO)[C@@H](O)[C@H]2O)cc1F [5-FUrd, 5-fluorouridine]
5.15

---

Molecular target: PfENT1 (Plasmodium falciparum, UniProt Q8IDM6)
Sequence (Q8IDM6 whole entry): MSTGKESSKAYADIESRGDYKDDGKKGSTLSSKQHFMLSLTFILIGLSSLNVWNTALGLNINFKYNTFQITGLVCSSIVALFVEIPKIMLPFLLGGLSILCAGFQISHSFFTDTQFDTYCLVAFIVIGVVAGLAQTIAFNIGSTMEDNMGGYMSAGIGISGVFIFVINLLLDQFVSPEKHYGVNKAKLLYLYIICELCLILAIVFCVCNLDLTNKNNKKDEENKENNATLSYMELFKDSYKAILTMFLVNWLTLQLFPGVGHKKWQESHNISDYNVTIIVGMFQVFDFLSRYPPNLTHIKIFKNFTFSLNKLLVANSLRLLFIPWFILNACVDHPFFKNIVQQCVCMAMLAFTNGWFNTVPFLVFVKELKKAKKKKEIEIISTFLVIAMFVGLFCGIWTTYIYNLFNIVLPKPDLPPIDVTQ
Assay: cell-based
Conditions: EC50 5-FUrd growth rescue of fui1Δ::PfENT1-HA-CO, 125 µM 5-FUrd; mean ± SD, N ≥ 3
valueType: EC50 (µM)
One number for each entry, in µM.

O=C(Nc1cccc(-c2nc3ncccc3o2)c1)c1cccc(F)c1
5.7
Cc1ccccc1/C=C/c1nc2ccccc2c(=O)[nH]1
4.7
O=C(Nc1ccc(-c2nnc(-c3ccco3)o2)cc1)c1ccco1
5.7

Below: the item to evaluate.
Quickly give me recorded EC50 for COc1cc(COc2ccc3c(C)cc(=O)oc3c2)cc(OC)c1OC
2.3

---

Molecular target: PfENT1 (Plasmodium falciparum, UniProt Q8IDM6)
Experiment: cell-based
Conditions: EC50 rescue of fui1Δ::PfENT1-HA-CO strain growth, 125 µM 5-FUrd; OD600
valueType: pEC50
Numbers only, as −log10 of the molar value.

Quickly give me recorded pEC50 for OC[C@H]1O[C@@H](n2cnc3c(O)ncnc32)[C@H](O)[C@@H]1O [Inosine, inosine, reference compound]
2.48

---

Target: PfENT1 (Plasmodium falciparum)
Type: cell-based
pIC50: −log10 of the molar value.
Classify by measured pIC50: 1 if it is equal to or exceeds 6, -1 if it is smaller.

Completed entries (count: 6):
COc1ccccc1C(=O)Nc1cccc(-c2nc3ncccc3o2)c1
-1
Cn1cc(C(=O)C(=O)Nc2ccc(C(=O)N3CCCC3)cc2)c2ccccc21
-1
Cc1ccccc1/C=C/c1nc2ccccc2c(=O)[nH]1
1
O=C(Nc1ccc(-c2nc3ncccc3o2)cc1)c1ccccc1Br
-1
O=C(Nc1ccc2nc(NC(=O)c3ccco3)sc2c1)c1ccco1
1
O=C(Nc1ccc(Cl)c(-c2nc3ncccc3o2)c1)c1cccs1
-1

Hello, I need to know if COc1cc(COc2ccc3c(C)cc(=O)oc3c2)cc(OC)c1OC has measured pIC50 not below 6. Thanks!
1

Hello, I need to know if O=C(Nc1ccc(-c2nnc(-c3ccco3)o2)cc1)c1ccco1 has measured pIC50 not below 6. Thanks!
-1

Cited source for all entries: paper PMC4369170
